target: 3-oxo-5-alpha-steroid 4-dehydrogenase 2 (Rattus norvegicus, UniProt P31214); test: Compound was tested in vitro for inhibitory activity against type 2 5-alpha reductase Isozyme homogenated from rat epididymis; format: functional
Sequence (P31214 whole entry): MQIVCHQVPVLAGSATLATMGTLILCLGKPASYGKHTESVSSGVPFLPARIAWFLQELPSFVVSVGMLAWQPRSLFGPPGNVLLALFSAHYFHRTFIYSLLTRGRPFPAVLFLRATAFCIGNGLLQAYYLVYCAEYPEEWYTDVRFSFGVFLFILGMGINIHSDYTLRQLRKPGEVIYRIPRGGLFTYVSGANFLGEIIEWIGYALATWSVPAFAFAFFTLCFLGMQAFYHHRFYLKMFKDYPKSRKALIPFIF

{"MOLECULE": "CC(C)(C)NC(=O)[C@H]1CC[C@H]2[C@@H]3CC[C@H]4NC(=O)C=C[C@]4(C)[C@H]3CC[C@]12C [FINASTERIDE]", "IC50, nM": 2.1}

* * *

biological target: 3-oxo-5-alpha-steroid 4-dehydrogenase 1 (Rattus norvegicus); assay: 5 alpha- reductase inhibitory activity
Sequence (P24008 whole entry): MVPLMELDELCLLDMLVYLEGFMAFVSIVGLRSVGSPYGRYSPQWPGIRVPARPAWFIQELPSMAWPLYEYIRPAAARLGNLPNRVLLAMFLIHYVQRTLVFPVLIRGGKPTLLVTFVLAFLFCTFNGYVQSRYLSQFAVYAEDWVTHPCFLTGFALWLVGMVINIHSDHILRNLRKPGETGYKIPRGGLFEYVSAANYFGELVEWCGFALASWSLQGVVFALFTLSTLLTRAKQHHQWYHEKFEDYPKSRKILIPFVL
pIC50: −log10 of the molar value.
Each entry below carries its reported pIC50.

{"SMILES REPRESENTATION": "CC/C(=C\\C(=O)Nc1ccccc1OCCCC(=O)O)c1ccc2c(ccn2C(c2ccccc2)c2ccccc2)c1", "pIC50": 8.60}
{"SMILES REPRESENTATION": "C/C(=C\\C(=O)Nc1ccccc1OCCCC(=O)O)c1ccc2c(ccn2C(c2ccccc2)c2ccccc2)c1", "pIC50": 8.25}
